# TESTED_SYSTEM: 5-HT2B receptor (Homo sapiens)
# Construct: host or cells: CHO-K1
# Sequence (P41595 whole entry): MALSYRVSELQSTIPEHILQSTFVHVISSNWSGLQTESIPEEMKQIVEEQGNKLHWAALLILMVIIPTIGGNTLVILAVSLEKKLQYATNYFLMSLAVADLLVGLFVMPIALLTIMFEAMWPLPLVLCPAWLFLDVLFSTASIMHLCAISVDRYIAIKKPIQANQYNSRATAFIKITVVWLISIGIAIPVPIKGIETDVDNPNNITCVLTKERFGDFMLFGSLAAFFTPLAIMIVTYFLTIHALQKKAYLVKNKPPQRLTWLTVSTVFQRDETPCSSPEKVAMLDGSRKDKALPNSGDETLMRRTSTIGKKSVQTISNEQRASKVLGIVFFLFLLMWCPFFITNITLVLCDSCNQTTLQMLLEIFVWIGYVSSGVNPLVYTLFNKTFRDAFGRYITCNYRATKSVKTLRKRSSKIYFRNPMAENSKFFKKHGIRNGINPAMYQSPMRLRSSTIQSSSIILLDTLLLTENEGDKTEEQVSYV
# ASSAY_SUMMARY: 5-HT2B receptor binding, 3H-LSD ligand displacement assay
# EXPERIMENTAL_SETUP: 0.001 uM compound
# Experimental: 5-HT2B receptor binding (performed at Eurofins Panlabs Taiwan, Ltd.) to human receptor protein expressed in CHO-K1 cells was determined in a ligand displacement assay using ^3H-lysergic acid diethylamide (LSD) as radioligand and ketanserine as a standard reference compound. Data is presented as % displacement of radioligand at indicated compound concentrations, see Table 1 and Table 2.
Note to self: values exactly at 30% are t. So inhibition at 0.001 µM at or above 30% is t, below is f.

Prompt: Entry COc1c(Cl)cccc1C1=NN(C(=N)Nc2ccc(C(F)(F)F)cc2)CC1C (stereo not shown) : is its inhibition at 0.001 µM no less than 30%?
Response: f

Prompt: Entry COc1ccc(CNC(=N)N2CC(C)C(c3ccccc3O)=N2)cc1Cl (stereo not shown) : is its inhibition at 0.001 µM no less than 30%?
Response: f

Prompt: Entry COc1ccccc1C1=NN(C(=N)Nc2ccccc2)CC1C (stereo not shown) : is its inhibition at 0.001 µM no less than 30%?
Response: f

Prompt: Entry COc1ccccc1C1=NN(C(=N)Nc2ccc(F)cc2)CC1C (stereo not shown) : is its inhibition at 0.001 µM no less than 30%?
Response: f

Prompt: Entry C[C@@H]1CN(C(=N)NCc2ccccc2)N=C1c1cccc(Cl)c1O (single isomer, unassigned) : is its inhibition at 0.001 µM no less than 30%?
Response: t

Prompt: Entry CC1CN(C(=N)Nc2ccccc2)N=C1c1ccccc1O (stereo not shown) : is its inhibition at 0.001 µM no less than 30%?
Response: t

Prompt: Entry CC1CN(C(=N)NCCc2ccccc2)N=C1c1ccccc1O (stereo not shown) : is its inhibition at 0.001 µM no less than 30%?
Response: t

Prompt: Entry COc1ccccc1C1=NN(C(=N)NCC(F)(F)F)CC1C (stereo not shown) : is its inhibition at 0.001 µM no less than 30%?
Response: f

Prompt: Entry COc1ccc(NC(=N)N2CC(C)C(c3ccccc3O)=N2)cc1 (stereo not shown) : is its inhibition at 0.001 µM no less than 30%?
Response: t

Prompt: Entry CC1CN(C(=N)Nc2ccc(C(F)(F)F)cc2)N=C1c1ccccc1O (stereo not shown) : is its inhibition at 0.001 µM no less than 30%?
Response: t

Prompt: Entry CCCCNC(=N)N1CC(C)C(c2cccc(Cl)c2OC)=N1 (stereo not shown) : is its inhibition at 0.001 µM no less than 30%?
Response: t

Prompt: Entry CCCCCCCCCCCCNC(=N)N1CC(C)C(c2cccc(Cl)c2O)=N1 (stereo not shown) : is its inhibition at 0.001 µM no less than 30%?
Response: f

Prompt: Entry COc1c(Cl)cccc1C1=NN(C(=N)NCC(F)(F)C(F)(F)C(F)(F)F)CC1C (stereo not shown) : is its inhibition at 0.001 µM no less than 30%?
Response: f

Prompt: Entry COc1ccc(NC(=N)N2CC(C)C(c3ccccc3OCc3ccccc3)=N2)cc1 (stereo not shown) : is its inhibition at 0.001 µM no less than 30%?
Response: f

Prompt: Entry COc1c(Cl)cccc1C1=NN(C(=N)Nc2ccc(F)cc2)CC1C (stereo not shown) : is its inhibition at 0.001 µM no less than 30%?
Response: f

Prompt: Entry COc1c(Cl)cccc1C1=NN(C(=N)Nc2ccccc2)CC1C (stereo not shown) : is its inhibition at 0.001 µM no less than 30%?
Response: t

Prompt: Entry COc1ccccc1C1=NN(C(=N)Nc2ccc(Cl)cc2)CC1C (stereo not shown) : is its inhibition at 0.001 µM no less than 30%?
Response: f

Prompt: Entry CC1CN(C(=N)N[C@@H](C)c2ccccc2)N=C1c1ccccc1O (stereo partly shown) : is its inhibition at 0.001 µM no less than 30%?
Response: f

Prompt: Entry CC1CN(C(=N)NC2CCCCC2)N=C1c1cccc(Cl)c1O (stereo not shown) : is its inhibition at 0.001 µM no less than 30%?
Response: t
